# credit: patent US20040102423A1

# Test system: rabbit aortic rings
# experiment: Assay B: In vitro vascular smooth muscle response for AII (antagonist activity, pA2)
# Type: cell-based
# measurementParameters: Oryctolagus cuniculus, two values in a cell = two determinations
endpointLabel: Kb

Ask: State the recorded Kb for this entry: CCCCc1nn(CC(OCC(=O)O)c2ccccc2)c(=O)n1Cc1ccc(-c2ccccc2-c2nn[nH]n2)cc1 (stereo not shown)
Result: 20 nM

Ask: Another compound to check: CCCCc1nc(CCCC)n(Cc2ccc(-c3ccccc3C(=O)NNS(=O)(=O)C(F)(F)F)cc2)n1
Result: 1.12 nM

Ask: Another compound to check: CCCCc1cn(C)c(=O)n1Cc1ccc(-c2ccccc2-c2nnn[nH]2)nc1
Result: 0.724 nM

Ask: Another compound to check: CCCc1nc(CCC)n(Cc2ccc(-c3ccccc3-c3nnn[nH]3)nc2)n1
Result: 234 nM
